Let's go through some recorded Ki values for Vasopressin V2 receptor (Homo sapiens, UniProt P30518) together.
reported-property: Ki (nM)

>  <molecule-smiles>
Cc1ccn(-c2ccc(C(=O)N3CCC(F)(F)/C(=C\C(=O)NCc4cccc(C#N)n4)c4ccccc43)c(Cl)c2)n1

>  <Ki, nM>
7.4

$$$$
>  <molecule-smiles>
Cc1ccn(-c2ccc(C(=O)N3CCC(F)(F)/C(=C\C(=O)NCc4nc5ccccc5[nH]4)c4ccccc43)c(Cl)c2)n1

>  <Ki, nM>
12

$$$$
>  <molecule-smiles>
Cc1ccn(-c2ccc(C(=O)N3CCC(F)(F)/C(=C\C(N)=O)c4ccccc43)c(Cl)c2)n1

>  <Ki, nM>
33

$$$$
>  <molecule-smiles>
Cc1ccn(-c2ccc(C(=O)N3CCC(F)(F)/C(=C\C(=O)NCCO)c4ccccc43)c(Cl)c2)n1

>  <Ki, nM>
9.7

$$$$
>  <molecule-smiles>
Cc1ccn(-c2ccc(C(=O)N3CCC(F)(F)/C(=C\C(=O)NCc4cccnc4)c4ccccc43)c(Cl)c2)n1

>  <Ki, nM>
21

$$$$
>  <molecule-smiles>
Cc1ccn(-c2ccc(C(=O)N3CCC(F)(F)/C(=C\C(=O)NCc4ccncc4)c4ccccc43)c(Cl)c2)n1

>  <Ki, nM>
20

$$$$
>  <molecule-smiles>
Cc1ccn(-c2ccc(C(=O)N3CCC(F)(F)/C(=C\C(=O)NCc4ccco4)c4ccccc43)c(Cl)c2)n1

>  <Ki, nM>
27

$$$$
>  <molecule-smiles>
Cc1ccn(-c2ccc(C(=O)N3CCC(F)(F)/C(=C\C(=O)NCC(=O)O)c4ccccc43)c(Cl)c2)n1

>  <Ki, nM>
22

$$$$

(A) Cc1ccn(-c2ccc(C(=O)N3CCC(F)(F)/C(=C\C(=O)NCCN(C)C)c4ccccc43)c(Cl)c2)n1
(B) Cc1ccn(-c2ccc(C(=O)N3CCC(F)(F)/C(=C\C(=O)NCc4cccnn4)c4ccccc43)c(Cl)c2)n1
# min-compare on Ki between A and B Respond using the label that marks the chosen record.
B
(B: 3.4 nM, A: 53 nM)

====

Here's a batch of compounds along with measured Ki for Vasopressin V1a receptor (Homo sapiens, UniProt P37288).
reported-property: Ki (nM)

These recorded examples may help you get a feel for the data.
>  <molecule-smiles>
Cc1ccn(-c2ccc(C(=O)N3CCC(F)(F)/C(=C\C(=O)NCc4nc5ccccc5s4)c4ccccc43)c(Cl)c2)n1

>  <reported-result>
55

$$$$
>  <molecule-smiles>
Cc1ccn(-c2ccc(C(=O)N3CCC(F)(F)/C(=C\C(=O)NCc4cccnc4)c4ccccc43)c(Cl)c2)n1

>  <reported-result>
40

$$$$
>  <molecule-smiles>
Cc1ccn(-c2ccc(C(=O)N3CCC(F)(F)/C(=C\C(=O)NCc4ccccc4)c4ccccc43)c(Cl)c2)n1

>  <reported-result>
43

$$$$
>  <molecule-smiles>
Cc1ccn(-c2ccc(C(=O)N3CCC(F)(F)/C(=C\C(=O)NCc4nccs4)c4ccccc43)c(Cl)c2)n1

>  <reported-result>
43

$$$$
>  <molecule-smiles>
Cc1ccn(-c2ccc(C(=O)N3CCC(F)(F)/C(=C\C(=O)NCc4cccc(N)n4)c4ccccc43)c(Cl)c2)n1

>  <reported-result>
38

$$$$

(a) Cc1ccn(-c2ccc(C(=O)N3CCC(F)(F)/C(=C\C(=O)NCC(N)=O)c4ccccc43)c(Cl)c2)n1
(b) Cc1ccn(-c2ccc(C(=O)N3CCC(F)(F)/C(=C\C(=O)NCCO)c4ccccc43)c(Cl)c2)n1
(c) Cc1ccn(-c2ccc(C(=O)N3CCC(F)(F)/C(=C\C(=O)NCc4ccncc4)c4ccccc43)c(Cl)c2)n1
(d) Cc1ccn(-c2ccc(C(=O)N3CCC(F)(F)/C(=C\C(=O)O)c4ccccc43)c(Cl)c2)n1
Place the items in sequence of falling Ki. Quick reminder: the answer is the labels in the order asked.
d, a, b, c
(d: 6300 nM, a: 40 nM, b: 28 nM, c: 15 nM)
